Tgt: USP9X catalytic domain (Homo sapiens)
Construct: His/SUMO (pOPIN-S vector) (N, cleaved yes)
Sequence (Q93008 1551-1970): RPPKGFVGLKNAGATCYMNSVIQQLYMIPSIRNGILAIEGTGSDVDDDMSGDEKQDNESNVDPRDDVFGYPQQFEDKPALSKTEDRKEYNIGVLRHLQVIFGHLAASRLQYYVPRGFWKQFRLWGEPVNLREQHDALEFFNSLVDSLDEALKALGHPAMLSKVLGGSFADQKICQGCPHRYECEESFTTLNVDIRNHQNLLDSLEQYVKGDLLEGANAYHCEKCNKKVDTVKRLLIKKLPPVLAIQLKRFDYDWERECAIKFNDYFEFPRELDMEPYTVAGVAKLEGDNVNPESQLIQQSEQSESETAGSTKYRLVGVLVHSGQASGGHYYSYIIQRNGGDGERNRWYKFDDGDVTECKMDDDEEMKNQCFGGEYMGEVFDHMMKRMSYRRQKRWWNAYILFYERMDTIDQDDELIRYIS
Assay remarks: Ub-Rho cleavage assay
Measurement setup: Ub-Rho cleavage, recombinant USP9X catalytic domain (WT)
Measurement type: pIC50
pIC50 here is simply -log10 of the concentration when that concentration is written in mol/L.

Give me measured pIC50, please, for this compound: O=C(c1ccc2[nH]ccc2c1)N1CCN(S(=O)(=O)c2ccc3c(c2)OCCO3)CC1 [WEHI-680]
5.37

---

Tgt: USP9X Δβ (USP9X β-hairpin deletion) (Homo sapiens, UniProt Q93008, DEL1924-1943)
Construct: His/SUMO (pOPIN-S vector) (N, cleaved yes)
Sequence (Q93008 with tags, fused parts or gaps DEL1924-1943): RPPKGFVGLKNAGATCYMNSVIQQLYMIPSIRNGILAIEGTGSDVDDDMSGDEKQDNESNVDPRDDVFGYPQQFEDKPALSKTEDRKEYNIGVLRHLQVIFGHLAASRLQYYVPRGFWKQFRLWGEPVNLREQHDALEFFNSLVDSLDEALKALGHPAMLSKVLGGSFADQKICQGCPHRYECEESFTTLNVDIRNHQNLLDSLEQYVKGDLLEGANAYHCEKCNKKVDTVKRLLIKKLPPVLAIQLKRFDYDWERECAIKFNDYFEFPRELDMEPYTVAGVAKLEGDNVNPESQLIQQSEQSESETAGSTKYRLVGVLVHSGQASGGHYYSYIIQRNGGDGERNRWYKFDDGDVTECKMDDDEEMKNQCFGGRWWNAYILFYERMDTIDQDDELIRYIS
Assay remarks: Ub-Rho cleavage assay, USP9X Δβ variant
Measurement type: pIC50
pIC50 here is simply -log10 of the concentration when that concentration is written in mol/L.

For USP9X Δβ (USP9X β-hairpin deletion) (Homo sapiens, UniProt Q93008, DEL1924-1943), give the measured pIC50 of the entry Cc1[nH]c2ccc(C(=O)N3CCN(S(=O)(=O)c4ccc5c(c4)OCCO5)CC3)cc2c1C [WEHI-092]
6.61
